FYI, the data here is from ChEMBL document CHEMBL1143964.

# test_system: Epidermal growth factor receptor (Homo sapiens, UniProt P00533)
# Sequence (P00533 whole entry): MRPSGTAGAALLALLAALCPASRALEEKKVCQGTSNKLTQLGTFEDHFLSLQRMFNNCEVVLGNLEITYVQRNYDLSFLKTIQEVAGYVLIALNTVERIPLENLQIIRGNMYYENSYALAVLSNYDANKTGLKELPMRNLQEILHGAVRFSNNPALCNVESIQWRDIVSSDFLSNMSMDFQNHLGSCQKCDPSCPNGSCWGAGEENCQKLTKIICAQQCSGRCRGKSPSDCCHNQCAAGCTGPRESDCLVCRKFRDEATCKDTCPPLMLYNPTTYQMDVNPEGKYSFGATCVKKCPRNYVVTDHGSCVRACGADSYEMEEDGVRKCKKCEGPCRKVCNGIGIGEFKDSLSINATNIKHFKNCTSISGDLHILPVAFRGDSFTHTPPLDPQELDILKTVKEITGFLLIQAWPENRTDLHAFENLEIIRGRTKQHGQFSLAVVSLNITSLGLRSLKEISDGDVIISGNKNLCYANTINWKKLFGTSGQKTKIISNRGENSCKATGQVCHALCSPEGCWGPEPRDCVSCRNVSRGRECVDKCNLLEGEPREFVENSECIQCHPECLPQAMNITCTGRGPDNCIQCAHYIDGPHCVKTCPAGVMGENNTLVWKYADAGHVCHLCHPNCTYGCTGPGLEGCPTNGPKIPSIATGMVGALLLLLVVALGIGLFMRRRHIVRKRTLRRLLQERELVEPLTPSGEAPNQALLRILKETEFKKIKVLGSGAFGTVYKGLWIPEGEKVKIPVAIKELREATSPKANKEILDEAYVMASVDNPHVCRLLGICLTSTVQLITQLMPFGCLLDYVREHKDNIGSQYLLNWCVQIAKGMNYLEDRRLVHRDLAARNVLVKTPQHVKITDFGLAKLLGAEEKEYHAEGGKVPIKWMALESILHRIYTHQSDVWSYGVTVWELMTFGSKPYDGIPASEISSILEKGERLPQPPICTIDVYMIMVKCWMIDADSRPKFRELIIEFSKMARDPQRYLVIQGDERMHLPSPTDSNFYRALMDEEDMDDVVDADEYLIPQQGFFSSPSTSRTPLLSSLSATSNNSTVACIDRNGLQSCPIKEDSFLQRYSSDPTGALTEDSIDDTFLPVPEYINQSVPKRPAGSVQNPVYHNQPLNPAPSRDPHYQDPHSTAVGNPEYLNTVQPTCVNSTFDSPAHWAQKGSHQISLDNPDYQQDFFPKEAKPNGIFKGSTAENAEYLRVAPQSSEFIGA
quantity: pIC50
API: returns pIC50 as number; meaning -log10 of concentration in mol/L.

Prompt line: Suppose we examine the compound COc1cc(Nc2nn3c(N[C@H](CO)Cc4ccccc4)cc(C4CC4)nc3c2C(N)=O)cc(OC)c1 ; what pIC50 value has been reported?
Response line: 5.62

----------
Target sequence: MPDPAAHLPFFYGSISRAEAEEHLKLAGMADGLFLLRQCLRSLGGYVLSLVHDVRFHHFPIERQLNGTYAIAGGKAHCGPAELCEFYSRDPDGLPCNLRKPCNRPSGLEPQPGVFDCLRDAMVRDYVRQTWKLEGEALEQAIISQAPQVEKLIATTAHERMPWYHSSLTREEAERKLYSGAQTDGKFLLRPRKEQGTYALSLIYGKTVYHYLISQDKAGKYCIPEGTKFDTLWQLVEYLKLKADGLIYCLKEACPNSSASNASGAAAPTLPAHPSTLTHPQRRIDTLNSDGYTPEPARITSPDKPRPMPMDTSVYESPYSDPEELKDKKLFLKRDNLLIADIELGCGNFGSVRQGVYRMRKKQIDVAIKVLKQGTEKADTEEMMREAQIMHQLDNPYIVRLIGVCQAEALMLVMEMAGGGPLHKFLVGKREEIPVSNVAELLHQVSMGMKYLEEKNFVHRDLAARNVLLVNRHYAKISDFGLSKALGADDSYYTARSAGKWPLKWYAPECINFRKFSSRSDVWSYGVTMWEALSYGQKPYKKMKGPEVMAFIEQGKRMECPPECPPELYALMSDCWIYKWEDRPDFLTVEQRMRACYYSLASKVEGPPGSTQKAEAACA
pIC50: −log10 of the molar value.
quantity: pIC50

Prompt line: So what does the record say about pIC50 for COc1cc(Nc2nn3c(N[C@H](CO)Cc4ccccc4)cc(C4CC4)nc3c2C(N)=O)cc(OC)c1 ?
Response line: < 5.00

----------
# measurement_notes: AUC (0 to infinity) in Sprague-Dawley rat middle cerebral artery occlusion model at 3 mg/kg, iv
# Format: ADME, organism-based
# Set-up: time infinity, dose 3 mg/kg, route intravenous
# assay_setup: in vivo
quantity: AUC(0-inf) (ng·h/mL)
Quick reminder: number only, in ng·h/mL, skip the unit.

Prompt line: Given COc1cc(Nc2nn3c(N[C@H](CO)Cc4ccccc4)cc(C4CC4)nc3c2C(N)=O)cc(OC)c1 , state its recorded AUC(0-inf).
Response line: 1990

----------
Recorded pIC50 for the following molecules
# test_system: Proto-oncogene tyrosine-protein kinase Src (Homo sapiens, UniProt P12931)
# Sequence (P12931 2-536 limits assumed): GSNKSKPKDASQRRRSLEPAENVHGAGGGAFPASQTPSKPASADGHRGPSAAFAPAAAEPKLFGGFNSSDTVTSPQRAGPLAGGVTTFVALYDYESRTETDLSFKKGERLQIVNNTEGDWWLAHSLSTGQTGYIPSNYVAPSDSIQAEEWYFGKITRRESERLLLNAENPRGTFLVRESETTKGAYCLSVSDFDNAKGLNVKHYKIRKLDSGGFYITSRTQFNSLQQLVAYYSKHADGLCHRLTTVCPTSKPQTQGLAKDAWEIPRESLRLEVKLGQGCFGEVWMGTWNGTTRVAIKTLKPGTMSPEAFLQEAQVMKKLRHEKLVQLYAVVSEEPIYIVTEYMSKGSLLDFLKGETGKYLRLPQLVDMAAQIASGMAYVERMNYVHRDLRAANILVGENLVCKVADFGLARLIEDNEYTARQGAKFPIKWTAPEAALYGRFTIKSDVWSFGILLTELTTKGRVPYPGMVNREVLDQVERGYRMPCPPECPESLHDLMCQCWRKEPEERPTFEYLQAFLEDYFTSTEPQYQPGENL
# measurement_notes: Inhibition of human cSrc
Reminder that pIC50 means the negative base-10 logarithm of the concentration expressed in mol/L.

COc1cc(Nc2nn3c(N4CCC[C@@H]4CO)cc(C4CC4)nc3c2C(N)=O)cc(OC)c1 = 8.05
COc1cc(Nc2nn3c(N[C@H](CO)Cc4ccccc4)cc(C4CC4)nc3c2C(N)=O)cc(OC)c1 = 8.52
COc1cc(Nc2nn3c(NC[C@H](C)N)cc(C)nc3c2C(N)=O)cc(OC)c1 = 5.52
COc1cc(Nc2nn3c(N[C@@H](CO)C(C)C)cc(C4CC4)nc3c2C(N)=O)cc(OC)c1 = 8.10
COc1cc(Nc2nn3c(N4CCC[C@H]4CO)cc(C4CC4)nc3c2C(N)=O)cc(OC)c1 = 7.60

Prompt line: What does the data say about its pIC50? Entry: COc1cc(Nc2nn3c(N[C@@H](CO)Cc4ccccc4)cc(C4CC4)nc3c2C(N)=O)cc(OC)c1
Response line: 7.92

Prompt line: // returns reported pIC50 for input COc1cc(Nc2nn3c(NC[C@@H](C)N)cc(C)nc3c2C(N)=O)cc(OC)c1
Response line: 6.39

Prompt line: For the molecule COc1cc(Nc2nn3c(N[C@@H](C)CO)cc(C)nc3c2C(N)=O)cc(OC)c1 , what pIC50 is on record?
Response line: 5.46

Prompt line: What value of pIC50 has been recorded for this entry: COc1cc(Nc2nn3c(NC[C@@H](C)O)cc(C)nc3c2C(N)=O)cc(OC)c1
Response line: 5.17
